The reported measurements were obtained from patent US11912718B2.

experiment: Study A: single oral dose pharmacokinetics in healthy subjects; assay type: in vivo, human; settings: human, plasma, po, 80 mg, single oral dose 80 mg, fasted, mean ± SD; read-out: AUC0-12
quantity: AUC(0-t) (ng·h/mL)
Give the quantity in ng·h/mL, number only.

Q. # query: AUC(0-t) of entry "COc1ccccc1[C@H](Cn1c(=O)n(C(C)(C)C(=O)O)c(=O)c2c(C)c(-c3ncco3)sc21)OC1CCOCC1"
A. 395

* * *

test: Study B: multiple oral dose pharmacokinetics, 10 days; format: in vivo, human; settings: human, in vivo, oral, 100 mg, 100 mg BID, Day 10 steady state
quantity: Cmax (ng/mL)
Give the quantity in ng/mL, number only.

Q. # query: Cmax of entry COc1ccccc1[C@H](Cn1c(=O)n(C(C)(C)C(=O)O)c(=O)c2c(C)c(-c3ncco3)sc21)OC1CCOCC1 [Compound 1]
A. 121

* * *

assay: Study B: multiple oral dose pharmacokinetics, 10 days; type: in vivo, human; conditions: human, in vivo, oral, 150 mg, 150 mg QD, Day 1
quantity: AUC(0-inf) (ng·h/mL)
Give the quantity in ng·h/mL, number only.

Q. # query: AUC(0-inf) of entry "COc1ccccc1[C@H](Cn1c(=O)n(C(C)(C)C(=O)O)c(=O)c2c(C)c(-c3ncco3)sc21)OC1CCOCC1"
A. 587

* * *

experiment: Study B: multiple oral dose pharmacokinetics, 10 days; format: in vivo, human; settings: human, in vivo, oral, 200 mg, 200 mg QD, Day 1
quantity: Cmax (ng/mL)
Give the quantity in ng/mL, number only.

Q. # query: Cmax of entry "COc1ccccc1[C@H](Cn1c(=O)n(C(C)(C)C(=O)O)c(=O)c2c(C)c(-c3ncco3)sc21)OC1CCOCC1"
A. 152

* * *

experiment: Study B: multiple oral dose pharmacokinetics, 10 days; type: in vivo, human; settings: human, in vivo, oral, 200 mg, 200 mg QD, Day 1; read-out: AUC0-t
quantity: AUC(0-t) (µg·h/mL)
Give the quantity in µg·h/mL, number only.

Q. # query: AUC(0-t) of entry COc1ccccc1[C@H](Cn1c(=O)n(C(C)(C)C(=O)O)c(=O)c2c(C)c(-c3ncco3)sc21)OC1CCOCC1 [Compound 1]
A. 0.868

* * *

Test: Study A: single oral dose pharmacokinetics in healthy subjects
Type: in vivo, human
Conditions: human, plasma; single oral dose 500 mg, fasted, mean ± SD
Method: Study A evaluated the safety and tolerability of 30, 80, 200, 500, 800, and 1000 mg in the fasted state and 200 mg following a high fat meal (fed state) to cohorts of 8 healthy subjects (6 active and 2 placebo control per group). Table 12 summarizes PK parameters (mean) under fasted conditions of Study A. The reported factors may vary up to about 2%.
quantity: Cmax (ng/mL)
Give the quantity in ng/mL, number only.

Q. # query: Cmax of entry COc1ccccc1[C@H](Cn1c(=O)n(C(C)(C)C(=O)O)c(=O)c2c(C)c(-c3ncco3)sc21)OC1CCOCC1 [Compound 1]
A. 1110

* * *

test: Study B: multiple oral dose pharmacokinetics, 10 days; format: in vivo, human; details: human, in vivo, oral, 50 mg, 50 mg BID, Day 1; read-out: AUC0-12
quantity: AUC(0-t) (ng·h/mL)
Give the quantity in ng·h/mL, number only.

Q. # query: AUC(0-t) of entry "COc1ccccc1[C@H](Cn1c(=O)n(C(C)(C)C(=O)O)c(=O)c2c(C)c(-c3ncco3)sc21)OC1CCOCC1"
A. 143

* * *

test: Study A: single oral dose pharmacokinetics in healthy subjects; type: in vivo, human; conditions: human, plasma; single oral dose 30 mg, fasted, Mean (Min, Max)
quantity: Tmax
Enter the number, and then the unit.

Q. # query: Tmax of entry COc1ccccc1[C@H](Cn1c(=O)n(C(C)(C)C(=O)O)c(=O)c2c(C)c(-c3ncco3)sc21)OC1CCOCC1 [Compound 1]
A. 1.3 h

* * *

test: Study B: multiple oral dose pharmacokinetics, 10 days; type: in vivo, human; settings: human, in vivo, oral, 200 mg, 200 mg QD, Day 1
quantity: half-life

Q. # query: half-life of entry "COc1ccccc1[C@H](Cn1c(=O)n(C(C)(C)C(=O)O)c(=O)c2c(C)c(-c3ncco3)sc21)OC1CCOCC1"
A. 354 min

* * *

assay: Study B: multiple oral dose pharmacokinetics, 10 days; type: in vivo, human; conditions: human, in vivo, oral, 50 mg, 50 mg BID, Day 1
quantity: AUC(0-inf) (ng·h/mL)
Give the quantity in ng·h/mL, number only.

Q. # query: AUC(0-inf) of entry "COc1ccccc1[C@H](Cn1c(=O)n(C(C)(C)C(=O)O)c(=O)c2c(C)c(-c3ncco3)sc21)OC1CCOCC1"
A. 178

* * *

assay: Study A: single oral dose pharmacokinetics in healthy subjects; type: in vivo, human; settings: human, plasma; single oral dose 80 mg, fasted, mean ± SD
quantity: AUC(0-inf) (ng·h/mL)
Give the quantity in ng·h/mL, number only.

Q. # query: AUC(0-inf) of entry COc1ccccc1[C@H](Cn1c(=O)n(C(C)(C)C(=O)O)c(=O)c2c(C)c(-c3ncco3)sc21)OC1CCOCC1 [Compound 1]
A. 402

* * *

Test: Study B: multiple oral dose pharmacokinetics, 10 days
Type: in vivo, human
Details: human, in vivo, oral, 200 mg, 200 mg QD, Day 1; read-out: AUC0-12
Protocol: Study B (five (5) cohorts of 8 subjects (6 active and 2 placebo)) evaluated 50 mg twice daily (BID) (100 mg daily), 100 mg once daily (QD) (100 mg daily), 100 mg BID (200 mg daily), 200 mg QD (200 mg daily), or 150 mg QD (150 mg daily), or matching placebo. Subjects received multiple oral doses of Compound 1 or placebo for 9 consecutive days, with a single oral dose of Compound 1 or placebo on the morning of Day 10. Doses were administered approximately 30 minutes after meals. […]
quantity: AUC(0-t)
Enter the number, and then the unit.

Q. # query: AUC(0-t) of entry "COc1ccccc1[C@H](Cn1c(=O)n(C(C)(C)C(=O)O)c(=O)c2c(C)c(-c3ncco3)sc21)OC1CCOCC1"
A. 707 ng·h/mL

* * *

assay: Study A: single oral dose pharmacokinetics in healthy subjects; format: in vivo, human; details: human, plasma; single oral dose 200 mg, fasted, mean ± SD
quantity: Cmax (ng/mL)
Give the quantity in ng/mL, number only.

Q. # query: Cmax of entry "COc1ccccc1[C@H](Cn1c(=O)n(C(C)(C)C(=O)O)c(=O)c2c(C)c(-c3ncco3)sc21)OC1CCOCC1"
A. 416

* * *

assay: Study B: multiple oral dose pharmacokinetics, 10 days; assay type: in vivo, human; details: human, in vivo, oral, 150 mg, 150 mg QD, Day 10 steady state, Mean (Min, Max)
quantity: Tmax (h)
Give the quantity in h, number only.

Q. # query: Tmax of entry "COc1ccccc1[C@H](Cn1c(=O)n(C(C)(C)C(=O)O)c(=O)c2c(C)c(-c3ncco3)sc21)OC1CCOCC1"
A. 6.5

* * *

assay: Study A: single oral dose pharmacokinetics in healthy subjects; type: in vivo, human; conditions: human, plasma; single oral dose 80 mg, fasted, mean ± SD
quantity: half-life

Q. # query: half-life of entry "COc1ccccc1[C@H](Cn1c(=O)n(C(C)(C)C(=O)O)c(=O)c2c(C)c(-c3ncco3)sc21)OC1CCOCC1"
A. 7 h

* * *

assay: Study B: multiple oral dose pharmacokinetics, 10 days; type: in vivo, human; details: human, in vivo, oral, 100 mg, 100 mg BID, Day 1, Mean (Min, Max)
quantity: Tmax (h)
Give the quantity in h, number only.

Q. # query: Tmax of entry COc1ccccc1[C@H](Cn1c(=O)n(C(C)(C)C(=O)O)c(=O)c2c(C)c(-c3ncco3)sc21)OC1CCOCC1 [Compound 1]
A. 5.2

* * *

assay: Study B: multiple oral dose pharmacokinetics, 10 days; type: in vivo, human; conditions: human, in vivo, oral, 100 mg, 100 mg QD, Day 1; read-out: AUC0-12
quantity: AUC(0-t) (ng·h/mL)
Give the quantity in ng·h/mL, number only.

Q. # query: AUC(0-t) of entry "COc1ccccc1[C@H](Cn1c(=O)n(C(C)(C)C(=O)O)c(=O)c2c(C)c(-c3ncco3)sc21)OC1CCOCC1"
A. 234

* * *

experiment: Study B: multiple oral dose pharmacokinetics, 10 days; assay type: in vivo, human; settings: human, in vivo, oral, 100 mg, 100 mg BID, Day 1; read-out: AUC0-12
quantity: AUC(0-t) (ng·h/mL)
Give the quantity in ng·h/mL, number only.

Q. # query: AUC(0-t) of entry COc1ccccc1[C@H](Cn1c(=O)n(C(C)(C)C(=O)O)c(=O)c2c(C)c(-c3ncco3)sc21)OC1CCOCC1 [Compound 1]
A. 345
